- measurementParameters: in ethanol, 313.15 K
quantityName: solubility (mole fraction)
Answers are plain numbers.

Task: Find the measured solubility (mole fraction) of `CCOC(=O)CCC(=O)O[C@H]1[C@H](O[C@@H]2[C@@H](C)[C@H](O[C@H]3C[C@@](C)(OC)[C@@H](O)[C@H](C)O3)[C@@H](C)C(=O)O[C@H](CC)[C@@](C)(O)[C@H](O)[C@@H](C)C(=O)[C@H](C)C[C@@]2(C)O)O[C@H](C)C[C@@H]1N(C)C` and report it.
Result: 0.0323

====

- measurementParameters: in isopropanol, 313.15 K
quantityName: solubility (mole fraction)
One number for each entry.

Task: Find the measured solubility (mole fraction) of `CCOC(=O)CCC(=O)O[C@H]1[C@H](O[C@@H]2[C@@H](C)[C@H](O[C@H]3C[C@@](C)(OC)[C@@H](O)[C@H](C)O3)[C@@H](C)C(=O)O[C@H](CC)[C@@](C)(O)[C@H](O)[C@@H](C)C(=O)[C@H](C)C[C@@]2(C)O)O[C@H](C)C[C@@H]1N(C)C` and report it.
Result: 0.0342
